test.target: B2 bradykinin receptor (Homo sapiens, UniProt P30411)
assay.name: Antagonism of the [Ca2+] efflux actions of the human Bradykinin receptor B2 (WI38 fibroblasts)
Type: functional
pIC50: −log10 of the molar value.
property.name: pIC50

{"smi": "CN(C)CCCN(C)CCNC(=O)c1cccn1S(=O)(=O)c1ccc(NNC(=O)NC2c3ccccc3CCc3ccccc32)c([N+](=O)[O-])c1", "property.name": "pIC50", "value.measured": 7.26}

====

test.target: B2 bradykinin receptor (Homo sapiens, UniProt P30411)
Sequence (P30411 whole entry): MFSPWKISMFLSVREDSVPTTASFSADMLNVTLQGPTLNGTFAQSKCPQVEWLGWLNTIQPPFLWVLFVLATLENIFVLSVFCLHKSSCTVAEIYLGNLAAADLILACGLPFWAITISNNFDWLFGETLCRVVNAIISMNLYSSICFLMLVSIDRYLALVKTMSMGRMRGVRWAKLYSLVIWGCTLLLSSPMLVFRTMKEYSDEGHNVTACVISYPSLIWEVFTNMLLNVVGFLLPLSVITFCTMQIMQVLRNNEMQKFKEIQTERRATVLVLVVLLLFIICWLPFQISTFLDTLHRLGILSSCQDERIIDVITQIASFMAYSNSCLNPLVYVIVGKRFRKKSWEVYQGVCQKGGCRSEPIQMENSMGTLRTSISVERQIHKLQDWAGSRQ
assay.name: Antagonism of the [Ca2+] efflux actions of the human Bradykinin receptor B2 (SK-N-SH neuroblastoma)
Assay type: functional

{"smi": "CN(C)CCCN(C)CCNC(=O)c1cccn1S(=O)(=O)c1ccc(NNC(=O)NC2c3ccccc3CCc3ccccc32)c([N+](=O)[O-])c1", "IC50 [µM]": 0.012}
